test: amyloid nucleation score (Sup35N fusion, yeast selection) (log enrichment); library NNK2; higher = more nucleation; inactive = no reads after selection;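 also: zero at mode of non-aggregating sequences after 7 days selection at 30°C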
attribute.measured: amyloid nucleation score

1) YNSRNIEDFFVIDLVNWLRL :: -1.24
2) RTMFNLHADCERNLFWFGGW :: 5.13
3) RLLLLPTSLLYSKSWCYSLL :: -0.622
4) KHIKWKDCSG :: -0.091
5) FVLLGGMTWHT :: 5.51
6) ITFAYVSLTLHRINEMGYQL :: 4.65
7) KLIYSSYVGSFLMELRWVCD :: 1.74
8) RPMWLSGAEKKWLSCWCNCM :: 6.01

q: Fill in the blank: the reported amyloid nucleation score of YSMRWFVGGFILGYCVCGQV is ____.
a: 6.26

q: Fill in the blank: the reported amyloid nucleation score of VDYVGSYTVSEDREENLAKP is ____.
a: 3.75

q: Fill in the blank: the reported amyloid nucleation score of ETPIIRDQYKLGYNLRTSVL is ____.
a: inactive

q: Fill in the blank: the reported amyloid nucleation score of RMSVRLKVVHLDAIIVLVLG is ____.
a: 0.877

q: Fill in the blank: the reported amyloid nucleation score of SYDFSSINRDKTSSSRSLPR is ____.
a: -0.474

q: Fill in the blank: the reported amyloid nucleation score of TFVRVPFWFRKN is ____.
a: 9.79

q: Fill in the blank: the reported amyloid nucleation score of NLMIKCVGR is ____.
a: -1.05

q: Fill in the blank: the reported amyloid nucleation score of YAEHYWHLDNRTDWGIKEGY is ____.
a: -0.78

q: Fill in the blank: the reported amyloid nucleation score of SRRLCVTFAVFGSHKVLLS is ____.
a: inactive

###

experiment: amyloid nucleation score (Sup35N fusion, yeast selection) (log enrichment); library NNK2; higher = more nucleation; inactive = no reads after selection
Provide the reported amyloid nucleation score of each item.
Form field (numeric): enter value without unit.

q: Fill in the blank: the reported amyloid nucleation score of VSSVRIILLAWWSMRTLYFD is ____.
a: -2.43

q: Fill in the blank: the reported amyloid nucleation score of ANSNIHLVPMTLSTDEVPLP is ____.
a: 0.413

q: Fill in the blank: the reported amyloid nucleation score of SYHAYRG is ____.
a: -0.064

q: Fill in the blank: the reported amyloid nucleation score of TFYSLGLNISMFSLPGLAGY is ____.
a: 0.683

q: Fill in the blank: the reported amyloid nucleation score of SIGGMMVPLISLKYSY is ____.
a: -0.784

q: Fill in the blank: the reported amyloid nucleation score of NCAVFTSGR is ____.
a: -0.478

q: Fill in the blank: the reported amyloid nucleation score of SNFQYSIKGQADRLPIVLVL is ____.
a: -0.373

q: Fill in the blank: the reported amyloid nucleation score of NQITDMLIFWFVGIRWFYSE is ____.
a: 0.679

q: Fill in the blank: the reported amyloid nucleation score of RPWHDLLNLHLYGRFMYTIG is ____.
a: 0.415

q: Fill in the blank: the reported amyloid nucleation score of RNTNSANVKSCSMVRNRVWC is ____.
a: 0.604

q: Fill in the blank: the reported amyloid nucleation score of ILVSMDRLCLWAGTSASGFS is ____.
a: 0.278

q: Fill in the blank: the reported amyloid nucleation score of MVSYKVLEYYVSLITTHLLF is ____.
a: -0.36

q: Fill in the blank: the reported amyloid nucleation score of NSPNCDHASRKLIHR is ____.
a: 0.07

q: Fill in the blank: the reported amyloid nucleation score of DFAGSKDDWTSQMMGVLDGL is ____.
a: -0.689

q: Fill in the blank: the reported amyloid nucleation score of PPRGFFVAWIVDFRGAGLMG is ____.
a: -0.743

q: Fill in the blank: the reported amyloid nucleation score of VMYRRSACIEQDSYSNINCR is ____.
a: 0.025

q: Fill in the blank: the reported amyloid nucleation score of FFVSGLFANF is ____.
a: 1.73

q: Fill in the blank: the reported amyloid nucleation score of IVFYMSS is ____.
a: 1.53

q: Fill in the blank: the reported amyloid nucleation score of HMARYKIMSVLEIFHYMNRL is ____.
a: 3.16

q: Fill in the blank: the reported amyloid nucleation score of SYLFIDDTVDCQLKERRYPN is ____.
a: -0.763

q: Fill in the blank: the reported amyloid nucleation score of AGHWLCLVTNFVVRGGDKLF is ____.
a: 2.76

q: Fill in the blank: the reported amyloid nucleation score of VRIFSVCYKHLMGHCSSSA is ____.
a: -0.398

q: Fill in the blank: the reported amyloid nucleation score of VYCIVRMYIALWCYVLDYVE is ____.
a: 0.34

q: Fill in the blank: the reported amyloid nucleation score of SMSCTTSASYHYLIS is ____.
a: 0.697

q: Fill in the blank: the reported amyloid nucleation score of KRRKSSTTVSKVGTGLEWMG is ____.
a: 0.874

q: Fill in the blank: the reported amyloid nucleation score of SGRLNVSLLGVDSFYTELCA is ____.
a: -0.787

q: Fill in the blank: the reported amyloid nucleation score of GWAIPFADIEHCHVLLRISV is ____.
a: 0.914

q: Fill in the blank: the reported amyloid nucleation score of NWIDVLFKCKC is ____.
a: -0.156

q: Fill in the blank: the reported amyloid nucleation score of ENLYGFWYLTRCRMF is ____.
a: -0.096

q: Fill in the blank: the reported amyloid nucleation score of FQIREVGEVLNC is ____.
a: -0.202

q: Fill in the blank: the reported amyloid nucleation score of YTSSRGHYSIMGVIRMCDRL is ____.
a: 0.118

q: Fill in the blank: the reported amyloid nucleation score of KRNVLLLYYSCSAICSRYVV is ____.
a: -0.22

q: Fill in the blank: the reported amyloid nucleation score of LCGAILIIVHYYG is ____.
a: 5.45

q: Fill in the blank: the reported amyloid nucleation score of SHSYGTER is ____.
a: 4.64

q: Fill in the blank: the reported amyloid nucleation score of EWNAKLWSLPSGATGCKSQS is ____.
a: 1.16
